# subject.of.test: GPR6 (Homo sapiens)
# Construct: expressed in transfected cells; host or cells: CHO cells
# Sequence (P46095 whole entry): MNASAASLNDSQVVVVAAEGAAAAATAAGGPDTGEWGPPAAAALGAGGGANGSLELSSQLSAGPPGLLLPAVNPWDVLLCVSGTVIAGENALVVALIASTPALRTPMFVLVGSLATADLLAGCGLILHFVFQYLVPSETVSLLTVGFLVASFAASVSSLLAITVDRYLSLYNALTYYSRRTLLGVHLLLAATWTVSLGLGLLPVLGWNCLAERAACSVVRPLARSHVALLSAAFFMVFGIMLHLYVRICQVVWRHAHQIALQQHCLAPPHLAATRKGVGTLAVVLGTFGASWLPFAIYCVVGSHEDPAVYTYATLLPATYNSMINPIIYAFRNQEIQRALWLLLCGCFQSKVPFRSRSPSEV
# test.details: GPR6 antagonist functional cAMP assay (LANCE Ultra cAMP TR-FRET, CHO cells stably expressing GPR6)
# Assay type: cell-based
# measurement.conditions: procedure as described in Example 24
Give measured IC50 for each item. Keep answers brief.

Task: Retrieve IC50 measured for CC(=O)N1CCc2nc(N3CCC(Oc4ccc(F)cc4F)CC3)c(-c3ccn(C(=O)OC(C)(C)C)c3)nc2C1 [Compound 53] and print it.
Result: 1 to 30 µM

Task: Could you please provide reported IC50 for CC(=O)N1CCc2nc(N3CCC(Oc4ccc(F)cc4F)CC3)c(-c3cnn(C(F)F)c3)nc2C1 [Compound 15] ? Thanks!
Result: 0.1 to 1 µM

Task: Input CC(=O)N1CCc2nc(N3CCC(Oc4ccc(F)cc4F)CC3)c(-c3cccc(=O)[nH]3)nc2C1 [Compound 33] , output reported IC50.
Result: 0.1 to 1 µM
